assayRemarks: in vitro
experimentalContext: human, hela cells, % viability
As shown below, each of these compounds has a reported viability at 28.5 h, 10 µM value.
reportedProperty: viability at 28.5 h, 10 µM (%)

Cc1ccccc1C(=O)Nc1nc2ccc(S(C)(=O)=O)cc2s1	95.1
O=C(O)/C=C\c1cn(-c2ccccc2)nc1-c1cc2ccccc2o1	92.7
Cc1c(S(=O)(=O)Nc2ccc(C(O)(C(F)(F)F)C(F)(F)F)cc2)cnn1-c1ccccc1	92.1
Cc1ccc2c(c1)CCN(S(C)(=O)=O)C21CCN(CCCOc2ccccc2)CC1	96.8
Cc1cnn(-c2cc(Oc3ccccc3)ncn2)c1	114
COc1ccc(S(=O)(=O)Nc2cccc(C(=O)O)c2)cc1C(=O)O	86.8
Cn1c(=O)oc2cc(S(=O)(=O)NCCC(=O)O)ccc21	89.3
CC(C)[C@@H](CO)Nc1nc(-c2cccc3ccccc23)cnc1N	95.2
Cc1ccc(-c2nccnc2OCCn2cccc2)cc1C	101
CSc1nc(=O)c(CCC(=O)O)n[nH]1	110
